Recorded values, source the nanobody polyreactivity screen of Harvey et al. (2022).

- Experiment description: yeast display, Sf9 membrane polyspecificity reagent, FACS + sequencing; frameworks hold sequencing errors
Experimental readout: polyreactivity (PSR sort gate)

Previously resolved entries follow.
Name the reported polyreactivity (PSR sort gate) value associated with the sequence "QVQLVESGGGLVQAGGSLPLSCAASGATFTFYTMRSYRQAPGKERELVATISWRGGNTYYADSVKGRFTISRDNAKNTVYLQMNSLKPEDTAVYYCNAAPYRRGYGFREYDYWGQGTQVTVSS"
high polyreactivity

Name the reported polyreactivity (PSR sort gate) value associated with the sequence "QVQLVESGGGLVQAGGSLRLSCAASGRIFQVNAMGWYRQAPGKERELVAAITYSGGTTYYADSVKGRFTISRDNAKNTVYLQMNSLKPEDTAVYYCNAEYRWPYWGQWYFKGYDYWGQGTQVTVSS"
low polyreactivity

Name the reported polyreactivity (PSR sort gate) value associated with the sequence "QVQLVESGGGLFQAGGSLRLSCAASGITFYYYTMGWYRQAPGKERELVAAISTRGGRTYYADSVKGRFTISRDNAKNTVYLQMNSLKPEDTAVYYCATYQSGVYASKRRLDYWGQGTQVTVSS"
high polyreactivity

Name the reported polyreactivity (PSR sort gate) value associated with the sequence "QVQLEESGGGLVQAGGSLSLSSAASGSIFRNYAKGWYRQAPGKERELVAAISVRGGSTYYADSVKGRFTISRDNAKNTVYLQMNSLKPEDTAVYYCNARTYYPVYYRDGGYWGQGTQVTVSS"
high polyreactivity

Name the reported polyreactivity (PSR sort gate) value associated with the sequence "QVQLVESGGGLVQAGGSLRLSCAASGYIFYTYAMGWYRQAPGKERELVAGITGSGGSTYYADSVKGRFTISRDNAKNTVYLQMNSLKPEDTAVYYCANDIYQIGYRRYDSWGQGTQVTVSS"
low polyreactivity

Name the reported polyreactivity (PSR sort gate) value associated with the sequence "QVQLVESVGGIVQAGGSLRLSCAASGRTFTYNVMGWYRQAPGKEMELVAAITSGGSNYADSVKGRFTISRDNAKNTVYLQMNSLTPEDTAGYYCATDYYEDVTIGYDYWGQGTQVTVSS"
low polyreactivity

Continuing:
Name the reported polyreactivity (PSR sort gate) value associated with the sequence "QVQLVESGGGLVQAGGSLRLSCAASGSIYWYAMGWYRQAPGKERQLVAAITKSGSSTYYADSVKGRFTISRDNAKNTVYLQMNSLIPEDTAVYYCAARRAVSGGVRTYYWGQGTQVTVSS"
high polyreactivity

Name the reported polyreactivity (PSR sort gate) value associated with the sequence "QVQLQESGGGLVQAGGTITLGYDMGWYRQAPGKEREFVAGIDTGAITYYADSVKGRFTNSRDNAKNTVYLQMNSLKPEDTAVYYCAAIQTHTYAHSYWGQGTQVTVSS"
high polyreactivity

Name the reported polyreactivity (PSR sort gate) value associated with the sequence "QVQLEESGGGLVQAGASLRLSCAASGRTIAHYAMGWYRQAPGKERELVAAITRGGGTYYADSVKGRFTISRDNAKHSVYLQMNSLKPEDTAVYYCAADHSRYGYPAKTMDYWGQCTQVTVSS"
low polyreactivity

Name the reported polyreactivity (PSR sort gate) value associated with the sequence "QVQLLESGVGLDQAGGSLRLSCAASGSTFNRNAMGWYRQAPGKERELVAAITYSGGSTYYADSVKGRFTISRDNAKNTVYLQMNSLNPEDTAVYYCNAPYAGMGYWGQGTQVTVSS"
low polyreactivity

Name the reported polyreactivity (PSR sort gate) value associated with the sequence "QVQLVESGGGLVQAGGSLRLSCAASGSTLYGNVMGWYRQAPGKERELVATINRGGSTNYADSVKGRFTISRDNAKNNVYLQMNSLKPEDTAVYYCAADYYGYWYDYEGDHWGQGTQVTVSS"
low polyreactivity
